experiment: in vitro; conditions: human
recorded.metric: IC50 (µM)
Give the value, in units of µM, as a plain number.

NC(=O)c1cccc(O)c1O [Compound 5, 2,3-dihydroxybenzamide]: 33.8

Problem: Consider the compound shown here: Cc1c2ccncc2c(C)c2c1[nH]c1ccccc12 [Ellipticine, reference compound] What is its recorded IC50?
Solution: 11.8

Data provenance is paper PMC12339935.
